# EXPERIMENTAL_PROTOCOL: VP16 counterscreen qHTS for inhibitors of ROR gamma transcriptional activity;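 note: Gal4-VP16 expression switched on by copper sulfate through the metallothionein promoter; nearly all actives have a fitted effect of over 50% in size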
# MEASUREMENT_PARAMETERS: Drosophila S2 Gal4-VP16 UAS-luciferase, luminescence, 20 h; series mostly up to 53.6 µM
Among all 310,000 compounds or so, about 11,000 (3.5%) were called active. Another 8% or so got no clear call; they are omitted. Calls come from the whole dose curve; as a rule, active = well fitted inhibition curve with a large enough effect; inconclusive = small, poorly fitted or top-dose-only effect, or effect the other way; inactive = flat fitted curve, though single readings scatter. The full list was thinned out, with actives kept by preference.
Outcome codes: Yes = active, No = inactive

- COMPOUND: "O=C(CCC(=O)Nc1ccccc1)N/N=C/c1ccccc1F"
  GROUP: "No"
- COMPOUND: "O=C(O)CCn1c(Cc2ccccc2)nc2ccccc21"
  GROUP: "No"
- COMPOUND: "Cc1nc2ccc(S(=O)(=O)N(C)CC(=O)NC(C)c3ccccc3)cc2s1 (configuration not stated)"
  GROUP: "No"
- COMPOUND: "CCC(C)(C)NC(=O)C(c1ccc(O)cc1)N(Cc1ccco1)C(=O)CCC(=O)Nc1ccccn1 (configuration not stated)"
  GROUP: "No"
- COMPOUND: "CC(=O)c1ccc(N2CCN(C(=O)C3CCN(S(=O)(=O)c4ccc5c(c4)CC(C)N5C(=O)C4CC4)CC3)CC2)cc1 (configuration not stated)"
  GROUP: "No"
- COMPOUND: "CCn1c(-c2ccoc2C)n[nH]c1=S"
  GROUP: "No"
- COMPOUND: "Cc1ccc(N(C(=O)c2snc(C(N)=O)c2N)C(C(=O)NCC2CCCO2)c2c[nH]c3ccccc23)cc1 (configuration not stated)"
  GROUP: "No"
- COMPOUND: "Cc1occc(=O)c1OCc1c(Cl)cccc1Cl"
  GROUP: "No"
- COMPOUND: "CN(NS(=O)(=O)c1cccs1)c1ncc(C(F)(F)F)cc1Cl"
  GROUP: "Yes"
- COMPOUND: "C=CS(=O)c1sc(Cl)c(N2CCOCC2)c1[N+](=O)[O-] (configuration not stated)"
  GROUP: "Yes"
- COMPOUND: "CCC1CCCCN1C(=S)Nc1ccc(S(=O)(=O)Nc2ncccn2)cc1 (configuration not stated)"
  GROUP: "No"
- COMPOUND: "COc1ccc2[nH]c(=O)c(CN(Cc3cccnc3)S(=O)(=O)c3ccccc3F)cc2c1"
  GROUP: "No"
